EXPERIMENTAL SYSTEM: T1, activated Protein C (APC) (human, UniProt P04070 43-197; P04070 212-461)
T1 construct: also called human plasma APC
T1 sequence (P04070 43-197, chain 1 of 2): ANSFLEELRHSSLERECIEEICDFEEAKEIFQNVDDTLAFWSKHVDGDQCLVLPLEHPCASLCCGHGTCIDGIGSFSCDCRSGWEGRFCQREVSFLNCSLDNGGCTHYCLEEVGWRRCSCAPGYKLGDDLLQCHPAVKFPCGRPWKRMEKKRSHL
T1 sequence (P04070 212-461, chain 2 of 2): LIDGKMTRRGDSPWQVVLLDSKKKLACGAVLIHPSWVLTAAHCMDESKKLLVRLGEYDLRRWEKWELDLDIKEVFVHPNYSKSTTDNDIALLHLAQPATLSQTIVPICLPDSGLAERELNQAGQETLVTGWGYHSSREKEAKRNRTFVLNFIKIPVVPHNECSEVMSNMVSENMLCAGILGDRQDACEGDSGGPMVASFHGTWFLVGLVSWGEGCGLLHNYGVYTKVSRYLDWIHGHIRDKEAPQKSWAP
TEST NAME: ratio of rate constants, APC over fXa
ASSAY METRIC: fold inhibition APC/fXa (fold)

# BINDER, VALUE UNITS, MEASUREMENT
data = [
    ("FL α1AT Pitts C232S P2K (other, E. coli, SUMO tag removed; also called P2K α1AT Pitts; P2.G11) SDPQGDAAQKTDTSHHDQDHPTFNKITPNLAEFAFSLYRQLAHQSNSTNIFFSPVSIATAFAMLSLGTKADTHDEILEGLNFNLTEIPEAQIHEGFQELLRTLNQPDSQLQLTTGNGLFLSEGLKLVDKFLEDVKKLYHSEAFTVNFGDTEEAKKQINDYVEKGTQGKIVDLVKELDRDTVFALVNYIFFKGKWERPFEVKDTEEEDFHVDQVTTVKVPMMKRLGMFNIQHSKKLSSWVLLMKYLGNATAIFFLPDEGKLQHLENELTHDIITKFLENEDRRSASLHLPKLSITGTYDLKSVLGQLGITKVFSNGADLSGVTEEAPLKLSKAVHKAVLTIDEKGTEAAGAMFLEAIKRSIPPEVKFNKPFVFLMIEQNTKSPLFMGKVVNPTQK", "fold", 16.5),
]

Source listed as patent US20160311887A1.
